ASSAY_METHOD_TEXT: Cytotoxicity against human KBVIN cells expressing p-glycoprotein after 2 days
Type: functional
SETUP_CONDITIONS: 48 h, read-out: ED50 (the source's name)
ASSAY_READOUT: EC50 (µg/mL)
State just the number; it will be interpreted in µg/mL.

Exercise: What value of EC50 has been reported for the following compound? `COc1cc2c(c(OC)c1OC)-c1ccc(SC)c(=O)cc1[C@@H](NS(=O)(=O)c1ccccc1[N+](=O)[O-])CC2`
Key: 0.112

Exercise: Input `CN[C@H]1CCc2cc(OC)c(O)c(OC)c2-c2ccc(SC)c(=O)cc21`
Key: 1.38

Exercise: Lookup `CCCN([C@H]1CCc2cc(OC)c(OC)c(OC)c2-c2ccc(SC)c(=O)cc21)S(=O)(=O)c1ccccc1[N+](=O)[O-]`
Key: 1.36
